Test system: 518A2
Test Details: Growth inhibition of human 518A2 cells at 30 uM after 96 hrs by SRB assay
Type: functional, cell-based
Calls of active or inactive are those of the source. The calls are words filed in the database; no cut-off is given here.
Measurement Kind: growth inhibition (GI)

INSERT INTO results (sample_smiles, endpoint_result) VALUES
  ('C=C(C)[C@@H]1CC[C@]2([C@H](O)CC(=O)OCC)CC[C@]3(C)[C@H](CC[C@@H]4[C@@]5(C)CC[C@H](OC(C)=O)C(C)(C)[C@@H]5CC[C@]43C)[C@@H]12', 'inactive'),
  ('C=C(C)[C@@H]1CC[C@]2([C@H](O)CC(=O)OCC)CC[C@]3(C)[C@H](CC[C@@H]4[C@@]5(C)CC[C@H](OC)C(C)(C)[C@@H]5CC[C@]43C)[C@@H]12', 'inactive'),
  ('CCOC(=O)C[C@H]1O[C@@H]2[C@@H]3[C@H]4CC[C@@H]5[C@@]6(C)CC[C@H](OC(C)=O)C(C)(C)[C@@H]6CC[C@@]5(C)[C@]4(C)CC[C@@]31CCC2(C)C', 'inactive');
